// reported TGI per item
Tested on: UACC-62 melanoma
Test: NCI tumour cell line growth inhibition, 48 h
Attribute measured: TGI

INSERT INTO measurements (compound, attribute_measured, result) VALUES
  ('O/N=C1/CCCC/C1=C/C=C/c1ccccc1', 'TGI', '40.8 µM'),
  ('COC(=O)[C@H](CNC(=O)/C=C/c1ccc(OC(C)=O)c(OC(C)=O)c1)NC(=O)/C=C/c1ccc(OC(C)=O)c(OC(C)=O)c1', 'TGI', '> 100 µM'),
  ('CN(C)c1ccc(C(=S)c2ccc(N(C)C)cc2)cc1', 'TGI', '> 100 µM'),
  ('Cc1ccc(S(=O)(=O)N(CC(O)COc2ccccc2)c2c(F)c(F)cc(F)c2F)cc1 (stereo not given)', 'TGI', '37.5 µM'),
  ('CCCCC(C(=O)C(=O)Nc1ccc(C)cc1C)C(=O)C(C)C (stereo not given)', 'TGI', '> 100 µM'),
  ('CN(C)c1ccc(/C=C/C(=O)c2cc(C(C)(C)C)c(O)c(C(C)(C)C)c2)cc1', 'TGI', '> 100 µM'),
  ('CCCCCCCCCCC(=O)CCCCCCC(=O)O', 'TGI', '35.5 µM'),
  ('Clc1ccc(Nc2ncco2)cc1Cl', 'TGI', '> 10 µM'),
  ('Cc1ccc(S(=O)(=O)NC(=O)Nc2c(S(N)(=O)=O)cc(S(N)(=O)=O)c(Cl)c2Cl)cc1', 'TGI', '> 100 µM'),
  ('COC1(OC)CC2C(=O)N(Cc3ccccc3)C1C(S(=O)(=O)c1ccccc1)C2C(C)S(=O)(=O)c1ccccc1 (stereo not given)', 'TGI', '> 100 µM');

###

Test system: HCT-15 colon
Assay: NCI tumour cell line growth inhibition, 48 h
Attribute measured: TGI

INSERT INTO assay_data (compound, result) VALUES
  ('C=CC(=O)N[C@@H]1CN(c2nc(Nc3cn(C)nc3OC)c3ncn(C)c3n2)C[C@H]1F', '> 100 µM'),
  ('Cc1c2cnccc2c(C)c2c1c1cc(O)ccc1n2C(C)C', '4.2 µM'),
  ('Cn1c(N/N=C/c2ccccc2)nc(-c2ccc3c(c2)OCO3)c(C#N)c1=O', '> 100 µM'),
  ('C/C=C/CC(C(=O)OCC)(N(C)C(=O)OC(C)(C)C)S(=O)(=O)c1ccc(C)cc1 (stereo unspecified)', '> 100 µM'),
  ('O=c1cc(-c2ccc(Cl)cc2)[nH]c2ccccc12', '> 100 µM'),
  ('COc1ccc(C(=O)/C=C/c2sc(Cl)nc2Cl)cc1', '2.14 µM'),
  ('Nc1nc(N)c2c(n1)NC(c1sc(Cl)nc1Cl)CC(c1ccccc1)=N2 (stereo unspecified)', '15.2 µM'),
  ('COc1cc(C2CC(C)(N3CCOCC3)Oc3cc4c(cc32)OCO4)cc(OC)c1OC (stereo unspecified)', '> 100 µM'),
  ('COC(=O)C(=O)C(CC(=O)Nc1cc(Cl)ccc1Cl)C(=O)OC (stereo unspecified)', '> 100 µM'),
  ('COc1ccc(CN(CCN(C)C)c2ccccn2)cc1 (tested in a mixture with another compound)', '> 100 µM'),
  ('O=C(O)c1cc2ccccc2c(Cc2c(O)c(C(=O)O)cc3ccccc23)c1O', '> 100 µM'),
  ('O=c1oc2cc(O)ccc2c2[nH]c3cc(O)ccc3c12', '81.8 µM'),
  ('Oc1cc(O)c2c(c1)O[C@H](c1ccc(O)c(O)c1)[C@@H](O)C2', '> 100 µM'),
  ('Cc1ccsc1/C=N/NC1=NCCN1', '> 100 µM'),
  ('O=C1C=CC2(CCCCCCC2=O)CC1 (stereo unspecified)', '> 100 µM'),
  ('Cc1ccc(Nc2c3c(c(C#N)c4nc5ccccc5n24)CCCC3)cc1', '82.4 µM'),
  ('C/C=C1\CC(C(=O)OCC)CCCCCCC1=O (stereo unspecified)', '> 100 µM'),
  ('COc1ccc2[nH]c(Cl)c(/C=C3/C(=O)Nc4ccccc43)c2c1', '3.36 µM'),
  ('CCCCCC/C=C/C#CCCCCCCCC(=O)O', '> 100 µM'),
  ('C=C1CC[C@@]2(C)[C@@H]([C@@H]1C)[C@H]1CC[C@@H]3[C@@]4(C)CC[C@H](O)C(C)(C)[C@@H]4CC[C@@]3(C)[C@]1(C)C[C@@H]2O', '11.2 µM'),
  ('CCOC(=O)/C(=C/CC/C(C)=C/CC/C(C)=C/CCc1ccoc1)CC(=O)N1CCCCC1', '12.5 µM');

###

// reported TGI per item
Tested on: MCF7 breast
Experiment: NCI tumour cell line growth inhibition, 48 h
Attribute measured: TGI

INSERT INTO results (molecule, result) VALUES
  ('C=C1C(=O)OC2C1CCC(=C)C1CC(O)C(=C)C12 (stereo not drawn)', '25.5 µM'),
  ('Nc1n[n+]([O-])c2cc([N+](=O)[O-])ccc2[n+]1[O-]', '11.7 µM'),
  ('Cc1cc(OCc2nc(N)nc(N)c2-c2ccc(Cl)c(Cl)c2)ccc1[N+](=O)[O-]', '8.15 µM');

###

// reported GI50 per item
Test system: A549 NSCLC
Test: NCI tumour cell line growth inhibition, 48 h
Attribute measured: GI50

INSERT INTO assay_data (compound, result) VALUES
  ('CCn1cnc(C[C@H](NC(=O)[C@H](CCCCNC(=O)Nc2cc(C(F)(F)F)cc(C(F)(F)F)c2)NC(=O)Nc2cc(C(F)(F)F)cc(C(F)(F)F)c2)C(=O)OC)c1', '3.97 µM'),
  ('C[C@@H]1CC[C@H]2[C@@H](C)C(O)O[C@@H]3O[C@]4(C)CC[C@@H]1[C@]32OO4 (some centres undefined)', '1.74 µM'),
  ('COc1ccccc1-n1cnc(N)c1C(=O)c1cc(OC)c(OC)c(OC)c1', '4.42 µM'),
  ('O=C(COc1ccc(/C=C2\Oc3ccc4ccccc4c3C2=O)cc1)c1ccc([N+](=O)[O-])cc1', '45 µM');

###

System: MDA-MB-435
Experiment: NCI tumour cell line growth inhibition, 48 h
Attribute measured: TGI (µM)

INSERT INTO assay_data (compound, attribute_measured, unit_of_measure, value_relation_sign, result_number) VALUES
  ('COc1ccccc1-n1cnc2c1NC(C)(C)N=C2C(N)=O', 'TGI', 'µM', '>', 100),
  ('NC(N)=NN=c1c(=O)c2ccccc2c1=O', 'TGI', 'µM', '=', 3.71),
  ('C[C@@H]1CC[C@H]2[C@@H](C)C(O)O[C@@H]3O[C@]4(C)CC[C@@H]1[C@]32OO4 (some centres undefined)', 'TGI', 'µM', '=', 10.8),
  ('COc1ccc(-n2cc(-c3cc(OC)c(OC)c(OC)c3)nc2SCc2ccc(Cl)cc2)cc1OC', 'TGI', 'µM', '>', 100),
  ('COc1cc(C2CC(C)(N3CCOCC3)Oc3cc4c(cc32)OCO4)cc(OC)c1OC (centres undefined)', 'TGI', 'µM', '>', 100),
  ('CC(NC(=O)Cc1ccc(OP(=O)(OCc2ccc([N+](=O)[O-])o2)N(C)CCCCCl)cc1)c1ccc(OCC2CCCCC2)c(C(N)=O)c1 (centres undefined)', 'TGI', 'µM', '=', 3.95),
  ('O=S(=O)(O)c1ccc2c(N=Nc3cccc4ccccc34)c(O)ccc2c1', 'TGI', 'µM', '>', 100),
  ('c1ccc(-c2cnc(SC(c3ccccc3)c3ccccc3)[nH]2)cc1', 'TGI', 'µM', '>', 100),
  ('COc1c(C)c(C/C=C(\C)CC/C=C(\C)CC/C=C(\C)CCC=C(C)C)c(OC)c(OC)c1OC', 'TGI', 'µM', '>', 100),
  ('COc1cc2c(Oc3ccc(NC(=O)C4(C(=O)Nc5ccc(F)cc5)CC4)cc3F)ccnc2cc1OCCCN1CCOCC1', 'TGI', 'µM', '=', 2.39),
  ('CN(C)c1ccc(/C=C/C(=O)c2ccc(Nc3nc(Nc4ccc(F)cc4)nc(Nc4ccc(F)cc4)n3)cc2)cc1', 'TGI', 'µM', '=', 25.4),
  ('COc1ccc(C(=O)/C=C/c2sc(Cl)nc2Cl)cc1', 'TGI', 'µM', '=', 11.4),
  ('COc1ccc2c(c1)CC[C@@H]1[C@@H]2CC[C@]2(C)/C(=N/OCCN3CCCC3)CC[C@@H]12', 'TGI', 'µM', '=', 2.43),
  ('O=C1Cc2c(-c3ccccc3)cc(-c3ccccc3)nc2-c2ccccc2N1', 'TGI', 'µM', '>', 100),
  ('O=CC(OC(=O)c1ccccc1)C(OC(=O)c1ccccc1)C(COC(c1ccccc1)(c1ccccc1)c1ccccc1)OC(=O)c1ccccc1 (centres undefined)', 'TGI', 'µM', '=', 46.7),
  ('C[C@@H](C1CC[C@H]2[C@@H]3[C@@H]4O[C@@H]4[C@@]4(O)CC=CC(=O)[C@]4(C)[C@H]3C[C@H](O)[C@]12C)[C@H]1C[C@]2(C)O[C@]2(C)C(=O)O1 (some centres undefined)', 'TGI', 'µM', '>', 100),
  ('COc1ccc2[nH]c3cc4c(=O)c5cc(OC)ccc5[nH]c4cc3c(=O)c2c1', 'TGI', 'µM', '>', 100),
  ('O=C(O)C1C2C=CC(O2)C1C(=O)NCc1cccnc1 (centres undefined)', 'TGI', 'µM', '>', 100),
  ('CC12NC(=C(C#N)C#N)C(C#N)=C3NC(N)=C(C#N)C(=C31)Oc1ccccc12 (centres undefined)', 'TGI', 'µM', '>', 100),
  ('Cc1cc(S(=O)(=O)/N=C(\N)Nc2cccc(O)c2)c(SCc2ccccc2)cc1Cl', 'TGI', 'µM', '=', 32.5),
  ('COC(=O)C1OC(O[C@H]2CC[C@]3(C)[C@H]4CC=C5[C@@H]6CC(C)(C)CC[C@]6(C(=O)OC)CC[C@@]5(C)[C@]4(C)CC[C@H]3C2(C)C)C(O)C(O)C1O (some centres undefined)', 'TGI', 'µM', '=', 30),
  ('N#CCc1c(F)c(F)c(F)c(F)c1F', 'TGI', 'µM', '>', 100),
  ('CC(=O)N1C(C(=O)NN2CCOCC2)CSC1c1ccccc1 (centres undefined)', 'TGI', 'µM', '>', 100),
  ('Cc1cccc(C(C)(C)C)c1NC(=O)C(C#N)C1=C(Cl)C(=O)c2ccccc2C1=O (centres undefined)', 'TGI', 'µM', '=', 30.6),
  ('CC(=O)N[C@H](C)[C@@H](O)[C@@H](C)[C@@H]1OC(=O)/C=C/C=C(C)\C=C\[C@]2(C)C[C@@H](NS(C)(=O)=O)C=C[C@@H]2/C=C(C)/C=C/[C@H]1C', 'TGI', 'µM', '>', 43.5),
  ('COc1cccc(N/C(C)=C2/CCOC2=O)c1', 'TGI', 'µM', '>', 10),
  ('Cc1ccc(S(=O)(=O)N(CC(O)COc2ccccc2)c2c(F)c(F)cc(F)c2F)cc1 (centres undefined)', 'TGI', 'µM', '=', 36.5),
  ('COc1ccc(/C=C2/N=C(N/N=C\C(O)C(O)C(O)CO)NC2=O)cc1 (centres undefined)', 'TGI', 'µM', '>', 100),
  ('CC[C@@]1(O)C(=O)OCc2c1cc1n(c2=O)Cc2cc3cc(Cl)ccc3nc2-1', 'TGI', 'µM', '=', 0.357),
  ('Cc1cccc2c(C3=C(c4cn(C)c5ccccc45)C(=O)NC3=O)cn(C)c12', 'TGI', 'µM', '>', 25),
  ('C/C=C1/CN2CCC34C(=C(C(=O)OC)C1CC23)Nc1ccc(O)cc14 (centres undefined)', 'TGI', 'µM', '>', 100),
  ('CCOC(=O)/C(=C/CC/C(C)=C/CC/C(C)=C/CCc1ccoc1)CC(=O)N1CCCCC1', 'TGI', 'µM', '=', 10.9),
  ('Cn1c(N/N=C/c2ccccc2)nc(-c2ccc3c(c2)OCO3)c(C#N)c1=O', 'TGI', 'µM', '>', 100),
  ('Cc1ccc(Nc2c3c(c(C#N)c4nc5ccccc5n24)CCCC3)cc1', 'TGI', 'µM', '=', 45.8);

Origin of the recorded values: PubChem BioAssay (NCI)
